- systemTested: Nuclear receptor subfamily 1 group D member 1 (Homo sapiens)
- assayRemarks: modulators of Rev-erb alpha DNA binding, dose response, biochemical, FITC-DNA, fluorescence polarization (AID 1259321)
Activity calls are given as the source filed them.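 The calls were made as follows: active = half-maximal concentration for changing protein binding to DNA, from the fitted dose curve, below 10 micromolar; inactive = the rest.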
Can you answer with just one of these options? active, inactive

Look over these answered cases.
compound	systemTested	classLabel
Oc1ccc(Br)cc1C1Nc2ccccc2S1 (stereo not given)	Nuclear receptor subfamily 1 group D member 1 (Homo sapiens)	active
Cc1cccc2cc(C#N)c(SCC#N)nc12	Nuclear receptor subfamily 1 group D member 1 (Homo sapiens)	inactive
CC1(Cc2ccccc2Cl)C(=O)Nc2ccc(OC(F)(F)F)cc21 (stereo not given)	Nuclear receptor subfamily 1 group D member 1 (Homo sapiens)	active

Incoming: # lookup: test call for CCOC(=O)C(C)Sc1cc(CS(=O)(=O)c2ccccc2)nc(-c2ccccc2)n1 (stereo not given)
Outgoing: inactive

Incoming: Fill in: this test's call for O=C(NCc1ccccn1)c1ccc(Cn2c(=S)[nH]c3ccc(Br)cc3c2=O)cc1 is ___
Outgoing: active

----------
- systemTested: UniProtKB P20393
- assayRemarks: modulators of Rev-erb alpha DNA binding, dose response, biochemical, FITC-DNA, fluorescence polarization (AID 1259321)
Activity calls are given as the source filed them.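 How the source made its calls: active means half-maximal concentration for changing protein binding to DNA, from the fitted dose curve, below 10 micromolar; inactive means the rest.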
measuredAttribute: IC50

Example entries and their recorded answers appear below.
molecule	IC50
COc1ccc(Cn2ccc3ccc(-c4ccc5ccn(C(=O)c6cccc(OC)c6)c5c4)cc32)cc1	> 40000 nM (inactive)
Cc1ccc2nsnc2c1NC(=O)c1sc2ccccc2c1Cl	1490 nM
c1ccc(-c2nc(SCc3nc4ccccc4[nH]3)c3oc4ccccc4c3n2)cc1	2400 nM
COc1ccc2c(/C=C/c3cc[n+](C)cc3)c[nH]c2c1	inactive
Cc1ccc(-c2csc3nc[nH]c(=S)c23)cc1C	2100 nM

Give IC50 for all molecules that follow.
1. Fc1cccc(CSc2ncnc3c2oc2ccccc23)c1
2. N#Cc1ccccc1Sc1ccccc1C(=O)OCC(=O)NC1CCCCC1
3. Cc1nn2c(N)c(C#N)cnc2c1-c1ccc(Cl)cc1
4. COc1ccc(-n2nc(C(=O)NCC(=O)Nc3cccc(Cl)c3)c3ccccc3c2=O)cc1OC
5. CC(=O)Nc1ccc(O)c(-c2nc3ccccc3s2)c1
6. CCOC(=O)/C(C#N)=C/C=C1\C=Cc2ccccc2N1CC
7. Cc1c(C2N3CC4(C)CN2CC(C)(C3)C4=O)c2ccccc2n1C (centres undefined)
8. CCOc1ccc(CC(=O)Nc2sc(Cc3ccccc3)cc2C(N)=O)cc1OCC

Outgoing:
2380 nM
inactive
6120 nM
2600 nM
inactive
> 40000 nM (inactive)
inactive
> 40000 nM (inactive)

Dear reader, for each entry below, please note its IC50.
1. CC(=O)Nc1ccc(Nc2c3c4c(cccc4n(C)c2=O)C(=O)c2ccccc2-3)cc1
2. Cn1cc(/C=C/c2cc[n+](C)cc2)c2cc(Cl)ccc21
3. Cn1cncc1C#Cc1ccc2cc(C3(O)CCCCC3)oc(=O)c2c1
4. COc1ccccc1CNc1ncnc2cc(Cl)ccc12
5. COc1ccc2c(c1)c(/C=C/c1cc[n+](C)cc1)cn2C

Outgoing:
1. 5250 nM
2. > 40000 nM (inactive)
3. inactive
4. 2420 nM
5. inactive

Incoming: # IC50 lookup, item Cc1nn(C)c(C)c1NC(=O)CSc1nc(-c2ccccc2Cl)nc2c1cnn2-c1ccccc1
Outgoing: 879 nM

----------
- systemTested: Nuclear receptor subfamily 1 group D member 1 (Homo sapiens) (UniProt P20393)
- Sequence (P20393 whole entry, looked up): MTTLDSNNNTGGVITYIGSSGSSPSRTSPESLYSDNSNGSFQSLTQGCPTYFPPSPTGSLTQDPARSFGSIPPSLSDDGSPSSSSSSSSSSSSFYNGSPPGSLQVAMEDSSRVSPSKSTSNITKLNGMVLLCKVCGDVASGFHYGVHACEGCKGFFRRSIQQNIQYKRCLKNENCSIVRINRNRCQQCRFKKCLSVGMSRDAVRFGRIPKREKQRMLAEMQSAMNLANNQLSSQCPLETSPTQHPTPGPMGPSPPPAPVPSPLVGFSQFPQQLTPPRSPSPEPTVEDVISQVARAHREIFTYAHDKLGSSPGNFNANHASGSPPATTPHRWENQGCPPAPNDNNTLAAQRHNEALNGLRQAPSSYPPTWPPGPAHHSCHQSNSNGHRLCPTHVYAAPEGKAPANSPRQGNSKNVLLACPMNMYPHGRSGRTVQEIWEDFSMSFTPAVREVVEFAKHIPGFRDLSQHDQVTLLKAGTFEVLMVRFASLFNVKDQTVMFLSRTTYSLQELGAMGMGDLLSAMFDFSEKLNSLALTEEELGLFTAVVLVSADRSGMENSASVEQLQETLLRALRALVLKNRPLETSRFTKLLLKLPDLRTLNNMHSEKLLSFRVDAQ
- assayRemarks: modulators of Rev-erb alpha DNA binding, dose response, biochemical, FITC-DNA, fluorescence polarization (AID 1259321)
Active and inactive are the calls of the source.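 The calls were made as follows: active = half-maximal concentration for changing protein binding to DNA, from the fitted dose curve, below 10 micromolar; inactive = the rest.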
Classes to choose from: True for active, False for inactive

Reference set, count: 5
compound	systemTested	classLabel
CCOC(Cn1c(SCc2cc(C(C)=O)ccc2OC)nc2ccccc2c1=O)OCC	Nuclear receptor subfamily 1 group D member 1 (Homo sapiens) (UniProt P20393)	True
COc1ccc(NC(=O)c2sc3cc(C(F)(F)F)cnc3c2-c2cccs2)cc1	Nuclear receptor subfamily 1 group D member 1 (Homo sapiens) (UniProt P20393)	False
COc1cc(NC(=O)CCn2c(=S)[nH]c3ccccc3c2=O)cc(OC)c1OC	Nuclear receptor subfamily 1 group D member 1 (Homo sapiens) (UniProt P20393)	False
CCOc1ccc(CCNC(=O)c2cc(-c3ccccc3)c(N3CCOCC3)s2)cc1	Nuclear receptor subfamily 1 group D member 1 (Homo sapiens) (UniProt P20393)	True
CCOC(=O)c1c(-c2ccccc2)csc1NC(=O)/C(C#N)=C/c1ccc(O)c(OC)c1	Nuclear receptor subfamily 1 group D member 1 (Homo sapiens) (UniProt P20393)	True

Incoming: // param item: CCc1cc2cc3c(cc2nc1SCC(=O)Nc1nccs1)OCO3 ; yields the recorded call
Outgoing: False

Incoming: Identify the outcome logged in this assay for the compound shown: O=C(CCSc1nnc2scc(-c3ccccc3)n12)Nc1nc(-c2ccccc2)ns1
Outgoing: False

Incoming: Entry Cc1nc(SCC(=O)NC2CCCC2)c2oc3ccccc3c2n1 : call = ?
Outgoing: True

Incoming: Dear all, I need the recorded test outcome for CCN1C(=O)c2cccc3c(N)ccc(c23)C1=O , thank you.
Outgoing: False

Incoming: How did this test come out for Oc1c(C=Nc2cccc3cccnc23)sc2ccccc12 ?
Outgoing: True

Incoming: State the result this test recorded for N#Cc1ccc(Oc2ccc(-c3nc4ccccc4nc3-c3ccccc3)cc2)cc1C#N .
Outgoing: True

Incoming: Given Cc1ccc(CSc2nc3ccncc3n2CC(=O)Nc2cc(C)cc(C)c2)cc1 , state the outcome it received in this test.
Outgoing: False

Incoming: Record request — test call for COc1ccc2c(COC(=O)c3n[nH]c4ccccc34)cc(=O)oc2c1
Outgoing: False

Incoming: Record lookup: outcome of this test for COc1ccc(C(=O)Nc2ccccc2C(=O)Nc2ccccc2)cc1 ?
Outgoing: True

Incoming: Per the assay record, what outcome was assigned to COc1ccc2c(c1)c(=O)oc1cc(OCC(=O)NC3CC3)ccc12 ?
Outgoing: True

----------
- systemTested: Nuclear receptor subfamily 1 group D member 1 (Homo sapiens) (UniProt P20393)
- assayRemarks: modulators of Rev-erb alpha DNA binding, dose response, biochemical, FITC-DNA, fluorescence polarization (AID 1259321)
Activity calls are given as the source filed them.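 The calls were made as follows: active = half-maximal concentration for changing protein binding to DNA, from the fitted dose curve, below 10 micromolar; inactive = the rest.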
Reply using exactly one outcome from 1 (yes) = active, 0 (no) = inactive

Below, 4 molecules whose answers are already recorded.
molecule	classLabel
O=c1c2ccccc2ncn1-c1ccc(Cl)c(Cl)c1	0 (no)
C=CCc1cccc(C2Nc3ccccc3C(=O)N2O)c1O (configuration not stated)	1 (yes)
Cc1ccc(-c2nc3c(c(=O)c4ccccc4n3C)c(=O)n2-c2ccc(F)cc2)cc1	0 (no)
O=C(CSc1ncnc2c1oc1ccccc12)c1cccs1	1 (yes)

Incoming: What is the recorded call for this molecule in the test? COc1ccc2[nH]c(C(=O)Nc3ccccc3Cl)cc2c1
Outgoing: 0 (no)

Incoming: Could you check what this test reported for CCOC(=O)CSc1nc2cc3c(cc2cc1C#N)OCO3 ?
Outgoing: 0 (no)

Incoming: Hi, sorry to bother you, what did the test record for Fc1cccc2sc(Nc3nc4ccccc4s3)nc12 ?
Outgoing: 0 (no)

----------
- systemTested: Nuclear receptor subfamily 1 group D member 1 (Homo sapiens)
- assayRemarks: modulators of Rev-erb alpha DNA binding, dose response, biochemical, FITC-DNA, fluorescence polarization (AID 1259321)
The source made the active and inactive calls.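 Rule for the calls: active = half-maximal concentration for changing protein binding to DNA, from the fitted dose curve, below 10 micromolar; inactive = the rest.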
Output constraint: value belongs to yes (active), no (inactive)

Field: example entries. Status: answers known.
smilesString	classLabel
O=C(CSc1ncnc2c1sc1ccccc12)Nc1ccc(Br)cc1	yes
COc1cc(C=Cc2nnc3c4ccccc4cnn23)cc(OC)c1OC	no
CCc1cc2cc3c(cc2nc1SCC(=O)Nc1cc(C)on1)OCO3	yes
O=C(c1cc2cc(Cl)ccc2[nH]1)N1CCN(c2ccccn2)CC1	no
CCN(CC)C(=O)CSc1nc2cc3c(cc2c(=O)n1Cc1ccc(OC)cc1)OCO3	no

Please examine the following record next.
Incoming: Recorded test outcome, item CCN(CC)S(=O)(=O)c1ccc(C(=O)OCCN2C(=O)c3cccc4c(N5CCOCC5)ccc(c34)C2=O)cc1
Outgoing: no

----------
- systemTested: Nuclear receptor subfamily 1 group D member 1 (Homo sapiens)
- assayRemarks: modulators of Rev-erb alpha DNA binding, dose response, biochemical, FITC-DNA, fluorescence polarization (AID 1259321)
Activity calls are given as the source filed them.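 Rule for the calls: active = half-maximal concentration for changing protein binding to DNA, from the fitted dose curve, below 10 micromolar; inactive = the rest.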
Choose the fitting class; nothing outside active, inactive is accepted.

smilesString	classLabel
Cc1ccc(-c2c(C#N)c(N)n(-c3ccc(Cl)cc3)c(=O)c2C#N)cc1	inactive
O=C(NCc1ccco1)c1ccc(Cn2c(=O)c3ccccc3n(Cc3cccc(F)c3)c2=O)cc1	active

Here is the next item to consider.
Incoming: Answer briefly: the call reported for COc1ccc(CC(=O)Nc2ccc(-c3noc(-c4ccccc4OC)n3)cc2)cc1 in this assay.
Outgoing: active

----------
- systemTested: Nuclear receptor subfamily 1 group D member 1 (Homo sapiens) (UniProt P20393)
- assayRemarks: modulators of Rev-erb alpha DNA binding, dose response, biochemical, FITC-DNA, fluorescence polarization (AID 1259321)
Active and inactive are the calls of the source.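 Rule for the calls: active = half-maximal concentration for changing protein binding to DNA, from the fitted dose curve, below 10 micromolar; inactive = the rest.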
Outcome field: choose from yes (1) (active), no (0) (inactive)

smilesString	classLabel
CSc1nc(N)c(C#N)c(-c2ccc(Cl)cc2)c1C#N	yes (1)
Cc1ccccc1CNc1ncnc2cc(Cl)ccc12	yes (1)

Incoming: Assay outcome for COc1ccc(-n2nc(C(=O)NCC(=O)Nc3cc(Cl)c(OC)cc3OC)c3ccccc3c2=O)cc1 : what was it?
Outgoing: no (0)

Data provenance: PubChem BioAssay AID1259321
